assay-target: human SLC6A19 (Homo sapiens)
Construct: expressed in transfected cells
Sequence (Q695T7 1-634): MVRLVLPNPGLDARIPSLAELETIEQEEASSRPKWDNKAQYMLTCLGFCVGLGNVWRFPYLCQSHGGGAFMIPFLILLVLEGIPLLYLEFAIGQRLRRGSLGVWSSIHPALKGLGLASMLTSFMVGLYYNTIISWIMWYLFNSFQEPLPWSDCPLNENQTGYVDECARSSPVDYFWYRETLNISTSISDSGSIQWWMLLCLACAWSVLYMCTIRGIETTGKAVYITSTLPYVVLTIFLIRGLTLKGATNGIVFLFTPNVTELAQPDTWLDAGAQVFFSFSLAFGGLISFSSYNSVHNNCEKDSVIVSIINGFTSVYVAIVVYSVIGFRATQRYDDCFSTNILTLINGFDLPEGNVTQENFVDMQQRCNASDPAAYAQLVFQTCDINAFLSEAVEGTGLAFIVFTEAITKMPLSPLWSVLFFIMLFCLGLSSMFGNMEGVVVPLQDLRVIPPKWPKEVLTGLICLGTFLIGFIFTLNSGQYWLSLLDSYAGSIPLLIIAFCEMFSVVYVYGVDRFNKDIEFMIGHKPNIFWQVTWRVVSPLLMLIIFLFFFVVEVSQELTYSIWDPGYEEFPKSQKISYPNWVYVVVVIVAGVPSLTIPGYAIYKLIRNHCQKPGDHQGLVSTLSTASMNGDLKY
Sequence (Q9HBJ8 15-222 partner): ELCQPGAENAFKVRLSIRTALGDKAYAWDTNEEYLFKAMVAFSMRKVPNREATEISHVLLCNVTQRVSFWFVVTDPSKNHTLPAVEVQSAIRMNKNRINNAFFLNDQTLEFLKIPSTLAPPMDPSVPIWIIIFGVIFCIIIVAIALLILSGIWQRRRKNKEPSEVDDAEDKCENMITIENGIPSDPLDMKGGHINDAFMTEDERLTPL
protocol-description: Example B-1: L-[3H]leucine uptake, liquid scintillation, in CHO cells with doxycycline-inducible expression of human SLC6A19 and TMEM27
Assay type: cell-based
test-settings: read-out: SLC6A19_Radioligand Uptake Assay IC50
pIC50: −log10 of the molar value.
pIC50 values for the compounds below.
readout-kind: pIC50

compound | assay-target | readout-kind | result
CN(C(=O)NCc1cc2cc(Cl)ccc2[nH]1)[C@@H]1CCCN(C(=O)c2nn(C)cc2F)C1 [Compound 113] | human SLC6A19 (Homo sapiens) | pIC50 | 6.31
CN(C(=O)NCc1cc2cc(Cl)ccc2[nH]1)[C@@H]1CCCN(C(=O)c2ccc(F)cn2)C1 [Compound 114] | human SLC6A19 (Homo sapiens) | pIC50 | 6.07
CC(=O)N1CC[C@@H](C)[C@@H](N(C)C(=O)NCc2cc3cc(Cl)ccc3[nH]2)C1 (racemic) [Compound 203] | human SLC6A19 (Homo sapiens) | pIC50 | 5.66
CN(C(=O)NCc1cc2cc(Cl)ccc2[nH]1)[C@@H]1CCCN(C(=O)c2cc(F)ccn2)C1 [Compound 111] | human SLC6A19 (Homo sapiens) | pIC50 | 5.88
CC(=O)N1CCC[C@@H](N(C)C(=O)NCc2cc3[nH]cc(C)c3cc2C)C1 [Compound 233] | human SLC6A19 (Homo sapiens) | pIC50 | 4.81
CC(=O)N1CCC[C@@H](N(CC(F)(F)F)C(=O)NCc2cc3cc(Cl)ccc3[nH]2)C1 [Compound 195] | human SLC6A19 (Homo sapiens) | pIC50 | 6.99
CN(C(=O)NCc1cc2cc(Cl)ccc2[nH]1)[C@@H]1CCCN(C(=O)CC2CCC2)C1 [Compound 120] | human SLC6A19 (Homo sapiens) | pIC50 | 6.24
